Data credit: ChEMBL document CHEMBL1129245

Test system: Rhesus monkey
Experiment: Plasma concentration after 3 mg/kg intravenous dosing in Rhesus monkey at 4.0h
Assay type: ADME, organism-based, Macaca mulatta
Design: dose 3 mg/kg, route intravenous
Conditions: in vivo, 4 h
MEASURED_METRIC: Concentration (µg/mL)
Output spec: scalar in µg/mL, unitless text.

**Query** What value of measured Concentration is listed for O=c1[nH]nc(CN2CCC[C@H](OCc3cc(C(F)(F)F)cc(C(F)(F)F)c3)[C@@H]2c2ccccc2)[nH]1 ?
**Result** 1.98

====

Test system: Rattus norvegicus
Assay: Plasma concentration after 3 mg/kg peroral dosing in rat at 0.5 hr in rats
Type: ADME, organism-based
Parameters: dose 3 mg/kg, route oral
Conditions: in vivo, po
MEASURED_METRIC: Concentration (ng/mL)
Output spec: scalar in ng/mL, unitless text.

**Query** What value of measured Concentration is listed for O=c1[nH]nc(CN2CCC[C@H](OCc3cc(C(F)(F)F)cc(C(F)(F)F)c3)[C@@H]2c2ccccc2)[nH]1 ?
**Result** 70
